- System: Plasmodium berghei
- Experiment Description: Screen against P. berghei liver stage (PbLuc), transformed with Luciferase, at 10uM
- Format: functional, HepG2
- Details: tested at 10 uM
In all, about 69,000 compounds went through this assay and about 8,600 (12%) showed an effect of 50% or more. The full list was thinned out, with strong results kept by preference.
Measurement Label: INHIBITION (%)

> print(dat)
                                   compound  measurement.label  unit.of.measure  reported
1      CCCOCC(=O)NS(=O)(=O)c1ccc2c(c1)OCCO2         INHIBITION                %      18.2
2  O=C(CN1CC(c2nc(-c3ccco3)no2)C1)NCC1CCCO1 (centres undefined)         INHIBITION                %      17.7
3  CN1CCCC(c2cccc(Cc3ccccc3Cl)n2)C1 (centres undefined)         INHIBITION                %      51.7
4  Cc1nc(N)sc1C(=O)N1CCC(C(O)Cc2ccccc2)CC1 (centres undefined)         INHIBITION                %      46.7
5  Cc1ccc(NC(=O)C(C)n2ccc(C(F)(F)F)n2)nc1 (centres undefined)         INHIBITION                %      20.9
6   CCNc1nc(C)c(C(=O)N2CCN(c3ncccc3C)CC2)s1         INHIBITION                %     -11.2
7  CCOC(=O)N1CCN(C(=O)c2sc(-c3ccncc3)nc2C)CC1         INHIBITION                %        24
8  COc1nc(C)c(C(=O)N2CCC(C(O)Cc3ccccc3)CC2)s1 (centres undefined)         INHIBITION                %      18.5
9     CCCOCC(=O)NS(=O)(=O)c1ccc2c(c1)OCCCO2         INHIBITION                %      51.6
